- Test Target: YdgR Tyr71Phe (Escherichia coli, UniProt P77304, Y71F)
- Sequence (P77304 1-500 Y71F): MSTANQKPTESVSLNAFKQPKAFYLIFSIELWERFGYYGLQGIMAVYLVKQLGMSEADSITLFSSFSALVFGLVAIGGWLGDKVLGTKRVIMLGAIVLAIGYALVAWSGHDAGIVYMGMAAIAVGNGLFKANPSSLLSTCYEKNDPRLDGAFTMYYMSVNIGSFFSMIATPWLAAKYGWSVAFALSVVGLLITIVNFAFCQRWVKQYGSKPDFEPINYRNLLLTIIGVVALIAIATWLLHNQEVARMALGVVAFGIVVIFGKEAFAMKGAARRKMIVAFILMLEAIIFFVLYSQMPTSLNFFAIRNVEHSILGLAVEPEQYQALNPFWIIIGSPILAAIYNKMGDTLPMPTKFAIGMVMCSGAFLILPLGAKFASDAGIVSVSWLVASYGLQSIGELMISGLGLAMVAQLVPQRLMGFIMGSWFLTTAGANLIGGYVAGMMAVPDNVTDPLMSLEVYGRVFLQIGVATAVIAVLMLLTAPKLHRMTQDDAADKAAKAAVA
- Assay Details: β-Ala-Lys(AMCA) uptake and inhibition assay, YdgR Tyr71Phe
- Condition Parameters: 0.2 mM β-Ala-Lys(AMCA), 5 min incubation, pH 6.5; ±SEM, n≥3
Residues, ends and D or L forms follow the SMILES beside them.

Compound	Unit Spec	IC50
C[C@H](N)C(=O)N[C@@H](C)C(=O)O [Ala-Ala] (H-Ala-Ala-OH)	µM	370
